Data provenance is ChEMBL document CHEMBL1649147.

Each entry below carries its recorded MIC.
tested on: Staphylococcus aureus; assay: Antibacterial activity against vancomycin-resistant Staphylococcus aureus VRS1 by broth macrodilution method; type: functional

CCC[C@@H]1C[C@@H](C(=O)N[C@@H]([C@H]2O[C@H](SC)[C@H](O)[C@@H](O)[C@H]2O)[C@H](C)Cl)N(C)C1	> 512 µg/mL
CN(C)c1ccc(O)c2c1C[C@H]1C[C@H]3[C@H](N(C)C)C(O)=C(C(N)=O)C(=O)[C@@]3(O)C(O)=C1C2=O	1 µg/mL

QUERY: Name the reported MIC value associated with the compound CN[C@H](CC(C)C)C(=O)N[C@H]1C(=O)N[C@@H](CC(N)=O)C(=O)N[C@H]2C(=O)N[C@H]3C(=O)N[C@H](C(=O)N[C@H](C(=O)O)c4cc(O)cc(O)c4-c4cc3ccc4O)[C@H](O)c3ccc(c(Cl)c3)Oc3cc2cc(c3O[C@@H]2O[C@H](CO)[C@@H](O)[C@H](O)[C@H]2O[C@H]2C[C@](C)(N)[C@H](O)[C@H](C)O2)Oc2ccc(cc2Cl)[C@H]1O
RESULT: > 256 µg/mL

QUERY: Suppose we examine the compound CO[C@H]1/C=C/O[C@@]2(C)Oc3c(C)c(O)c4c(O)c(c(/C=N/N5CCN(C)CC5)c(O)c4c3C2=O)NC(=O)/C(C)=C\C=C\[C@H](C)[C@H](O)[C@@H](C)[C@@H](O)[C@@H](C)[C@H](OC(C)=O)[C@@H]1C ; what MIC value has been reported?
RESULT: > 128 µg/mL
